assay: chemical genetic growth profiling, strain panel (AID 1159580);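 note: tested at 20 µM; growth read once vehicle control cultures reached saturation at 30 °C; 1 = growth at the plate median or of vehicle wells; lower values mean less growth of the strain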; conditions: S. cerevisiae deletion strains, growth OD, locus YLR058C, strain SHM2 (second series), active compounds read low
Screen size: about 5,500 compounds; about 2,000 (36%) were called active. Roughly 18% stayed inconclusive and do not appear here. This is one part of the list.
// reported normalized growth for each item listed
Would you mind answering with just the numeric figure?

## Input Query (compound): `O=C(O)c1cccc([N+](=O)[O-])c1C(=O)Nc1ccc(F)cc1` ; field requested: normalized growth
## Output 0.991

## Input Further, for C=CC1CN2CCC1CC2C(OC(C)=O)c1ccnc2ccc(OC)cc12 (stereo unspecified) ?
## Output 1

## Input Further, for `Cc1cc(NS(=O)(=O)c2ccc(NC(=O)c3ccccc3)cc2)no1` ?
## Output 1.02

## Input Further, for `FC(F)(F)c1cc(-c2ccc(Cl)cc2)nc2cc(C3CC3)nn12` ?
## Output 1.02

## Input Further, for `NC(=O)C1=C(O)C(=O)N(C2CCCCC2)C1` ?
## Output 1.01

## Input Further, for `COC(=O)c1cccc([N+](=O)[O-])c1-c1c(C(=O)OC)cccc1[N+](=O)[O-]` ?
## Output 0.999

---

assay: chemical genetic growth profiling, strain panel (AID 1159580); settings: S. cerevisiae deletion strains, growth OD, locus YCL016C, strain dcc1, active compounds read low
The campaign covered roughly 5,500 compounds. About 2,000 (36%) were called active. Not shown: some 18% with an inconclusive outcome. The list shows a part of the results.
Endpoint name: normalized growth
Would you mind answering with just the numeric figure?

Solved entries (count: 5):
{"Compound": "COc1ccc([C@@H](C)C(=O)c2ccc(O)cc2O)cc1", "normalized growth": 0.985}
{"Compound": "CO/N=C(/C(=O)NC1C(=O)N2C(C(=O)OCOC(=O)C(C)(C)C)=C(/C=C\\c3scnc3C)CSC12)c1csc(N)n1 (stereo unspecified)", "normalized growth": 1}
{"Compound": "CC(=O)NC1C(O)OC(COS(=O)(=O)O)C(OC2OC(C(=O)O)C(OC3OC(CO)C(OC4OC(C(=O)O)C(O)C(O)C4OS(=O)(=O)O)C(OS(=O)(=O)O)C3NS(=O)(=O)O)C(O)C2OS(=O)(=O)O)C1O (stereo unspecified)", "normalized growth": 0.971}
{"Compound": "NS(=O)(=O)c1cc2c(cc1Cl)NCNS2(=O)=O", "normalized growth": 0.971}
{"Compound": "O=C1c2ccccc2C(=O)c2ccccc21", "normalized growth": 0.957}

## Input Query (compound): CC(C)CCCC(C)N (stereo unspecified) ; field requested: normalized growth
## Output 1.02

## Input Further, for `CC(C)=CCC/C(C)=C/CO` ?
## Output 1.02

## Input Further, for CC12CCC(OC(=O)c3ccccc3)CC1CCc1ccccc12 (stereo unspecified) ?
## Output 0.991

## Input Further, for `O=C(CCc1ccc(O)cc1)c1c(O)cc(O)cc1O` ?
## Output 1.01

## Input Further, for `COc1cc(O)ccc1C(C)=O` ?
## Output 1.03

## Input Further, for `NNCc1ccccc1` ?
## Output 0.982

---

test: chemical genetic growth profiling, strain panel (AID 1159580); conditions: S. cerevisiae deletion strains, growth OD, locus YKR091W, strain srl3
Out of some 5,500 compounds screened, about 2,000 (36%) were called active. Another 18% or so got no clear call; they are omitted. Rule as the data show it: active = normalized growth mostly below about 0.91 (no sharp cut-off); inconclusive = no clear call, values can overlap the other calls; inactive = mostly above about 0.92. Some of the results follow.
Outcome (select one): active, inactive

{"Molecule": "CC(=O)O[C@@H]1C2CC[C@@H]3C1(C[C@@H](O)[C@@]1(O)[C@@H](C[C@H](O)C1(C)C)[C@]3(C)O)C[C@@]2(C)O (some centres undefined)", "Assigned class": "inactive"}
{"Molecule": "O=C(O)c1cc(=O)c2ccccc2[nH]1", "Assigned class": "inactive"}
{"Molecule": "CN1CCC[C@H]1c1cccnc1", "Assigned class": "inactive"}
{"Molecule": "O=C1c2ccccc2C(=O)c2ccccc21", "Assigned class": "inactive"}
{"Molecule": "C/C(=C\\CO)CC[C@H](C)CCC[C@H](C)CCCC(C)C", "Assigned class": "active"}
{"Molecule": "CC(C)CCCC(C)N (centres undefined)", "Assigned class": "inactive"}
{"Molecule": "O=C1NS(=O)(=O)c2ccccc21", "Assigned class": "inactive"}
{"Molecule": "O=C(O)CC[N+](=O)[O-]", "Assigned class": "inactive"}

## Input Hello, I am checking results. What call was entered for CC(=CC1CCC(C)C2CCC(C)=C12)C(=O)O (centres undefined) ?
## Output active

## Input Further, for `CCCCCC/C=C\CCCCCCCc1cccc(O)c1C(=O)O` ?
## Output inactive

## Input Further, for `CCCCN(CC)c1c([N+](=O)[O-])cc(C(F)(F)F)cc1[N+](=O)[O-]` ?
## Output inactive

## Input Further, for `COc1cc(O)ccc1C(C)=O` ?
## Output inactive

## Input Further, for `C=CC[C@@H]1/C=C(\C)C[C@H](C)C[C@H](OC)[C@H]2O[C@@](O)(C(=O)C(=O)N3CCCC[C@H]3C(=O)O[C@H](/C(C)=C/[C@@H]3CC[C@@H](O)[C@H](OC)C3)[C@H](C)[C@@H](O)CC1=O)[C@H](C)C[C@@H]2OC` ?
## Output inactive

## Input Further, for `CCC[C@@H]1C[C@@H](C(=O)N[C@H]([C@H]2O[C@H](SC)[C@H](O)[C@@H](O)[C@H]2O)[C@H](C)O)N(C)C1` ?
## Output inactive

## Input Further, for `CC(=O)OCC1=C(C(=O)O)N2C(=O)[C@@H](NC(=O)CSc3ccncc3)[C@H]2SC1` ?
## Output inactive

## Input Further, for CC(=CC1CCC(C)C2C1=C(C)CC2O)C(=O)O (centres undefined) ?
## Output inactive

---

assay: chemical genetic growth profiling, strain panel (AID 1159580);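 note: tested at 20 µM; growth read once vehicle control cultures reached saturation at 30 °C; 1 = growth at the plate median or of vehicle wells; lower values mean less growth of the strain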; details: S. cerevisiae deletion strains, growth OD, locus YOR001W, strain rrp6
The campaign covered roughly 5,500 compounds. About 2,000 (36%) were called active. Not shown: some 18% with an inconclusive outcome. Cut-off read from the data, not from the text of the source: active = normalized growth mostly below about 0.91 (no sharp cut-off); inconclusive = no clear call, values can overlap the other calls; inactive = mostly above about 0.92. This is one part of the list.
Outcome (select one): 1 (yes) (active), 0 (no) (inactive)

# count of solved cases: 3
{"Compound": "COCC1=C(C(=O)OC(C)OC(=O)OC(C)C)N2C(=O)[C@@H](NC(=O)/C(=N\\OC)c3csc(N)n3)[C@H]2SC1 (stereo partly specified)", "Assigned class": "0 (no)"}
{"Compound": "O=C(/C=C/c1ccc(O)cc1)c1ccc(O)cc1O", "Assigned class": "0 (no)"}
{"Compound": "OC[C@H]1O[C@@H](Oc2ccc(O)cc2)[C@H](O)[C@@H](O)[C@@H]1O", "Assigned class": "0 (no)"}

## Input Hello, I am checking results. What call was entered for `CCCCCC/C=C\CCCCCCCc1cccc(O)c1C(=O)O` ?
## Output 0 (no)

## Input Further, for `O=C(/C=C/c1ccccc1)c1ccc(O)cc1O` ?
## Output 1 (yes)

## Input Further, for COC1=CC23CCCN2CCc2cc4c(cc2C3C1O)OCO4 (stereo unspecified) ?
## Output 0 (no)

## Input Further, for `CCCc1ncc(C[n+]2ccccc2C)c(N)n1` ?
## Output 0 (no)

## Input Further, for CC(=O)O[C@H]1CC2CCC3C(CC[C@@]4(C)C3C[C@H]([N+]3(C)CCCCC3)[C@@H]4OC(C)=O)[C@@]2(C)C[C@@H]1N1CCCCC1 (stereo partly specified) ?
## Output 0 (no)

## Input Further, for `O=C(/C=C/c1ccc(O)cc1)c1ccccc1O` ?
## Output 1 (yes)

## Input Further, for CC(=O)OC1CCC2(O)CC1(C)CCC1C2CC1(C)C (stereo unspecified) ?
## Output 0 (no)

## Input Further, for `O=C(/C=C/c1ccccc1)c1ccc(O[C@@H]2O[C@H](CO)[C@@H](O)[C@H](O)[C@H]2O)cc1O` ?
## Output 0 (no)

---

assay: chemical genetic growth profiling, strain panel (AID 1159580);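 note: tested at 20 µM; growth read once vehicle control cultures reached saturation at 30 °C; 1 = growth at the plate median or of vehicle wells; lower values mean less growth of the strain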; conditions: S. cerevisiae deletion strains, growth OD, locus YMR058W, strain fet3
About 2,000 (36%) of roughly 5,500 compounds were called active. Another 18% or so got no clear call; they are omitted. Rule as the data show it: active = normalized growth mostly below about 0.91 (no sharp cut-off); inconclusive = no clear call, values can overlap the other calls; inactive = mostly above about 0.92. Some of the results follow.
Outcome (select one): active, inactive

## Input Hello, I am checking results. What call was entered for `COc1cc([C@@H]2c3cc4c(cc3[C@H](O)[C@H]3COC(=O)[C@H]23)OCO4)cc(OC)c1OC` ?
## Output inactive

---

experiment: chemical genetic growth profiling, strain panel (AID 1159580);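 note: tested at 20 µM; growth read once vehicle control cultures reached saturation at 30 °C; 1 = growth at the plate median or of vehicle wells; lower values mean less growth of the strain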; details: S. cerevisiae deletion strains, growth OD, locus YHR200W, strain rpn10, active compounds read low
Out of some 5,500 compounds screened, about 2,000 (36%) were called active. About 18% were inconclusive and are not listed. The list shows a part of the results.
Endpoint name: normalized growth
Would you mind answering with just the numeric figure?

Solved entries (count: 3):
{"Compound": "COc1ccc(/C=C/c2cc(O)cc(O[C@@H]3O[C@H](CO)[C@@H](O)[C@H](O)[C@H]3O)c2)cc1", "Observed measurement": 0.983}
{"Compound": "OC[C@H]1O[C@@H](Oc2ccc(O)cc2)[C@H](O)[C@@H](O)[C@@H]1O", "Observed measurement": 1.02}
{"Compound": "CNC(C)(C)Cc1ccccc1", "Observed measurement": 1.01}

# next compound below
## Input Query (compound): `CCCN(CCC)c1c([N+](=O)[O-])cc(C(F)(F)F)cc1[N+](=O)[O-]` ; field requested: normalized growth
## Output 1.01
